# System: Mus musculus
# Assay: Tested for oral activity against Staphylococcus aureus smith infection in mice after single oral dose(SOD)
# Format: functional
# Stated conditions: Mus musculus, po; read-out: ED50
Value type: ED50
Write the figure, then the unit, nothing else.

Please review the following examples before continuing.
Compound	Value type	Test result
C[C@@H](N)C(=O)NC[C@H]1OCC[C@H]1SC1=C(C(=O)O)N2C(=O)[C@H]([C@@H](C)O)C2[C@H]1C (stereo partly drawn)	ED50	0.09 mg/kg
C[C@H]1C(S[C@@H]2CCO[C@@H]2CNC(=O)CN)=C(C(=O)O)N2C(=O)[C@H]([C@@H](C)O)C12 (stereo partly drawn)	ED50	0.41 mg/kg

Turning now to a further record.
Task: Could you share which ED50 value was measured for C[C@@H](N)C(=O)NC[C@H]1COC[C@H]1SC1=C(C(=O)O)N2C(=O)[C@H]([C@@H](C)O)C2[C@H]1C (stereo partly drawn) ?
Output: 4 mg/kg
